target: UniProtKB P20272; assay: Covalent binding affinity to CB1 receptor in rat brain membranes assessed as covalent labeling at 10 times Ki level incubated for 30 mins at 37 degC followed by UV irradiation by [3H]CP-55,940 radioligand binding assay; format: cell membranes; conditions: Membrane
The entries below are paired with their reported Activity.

{"molecule": "CC1(C)Oc2cc([C@]34CC5CC(C[C@@](CN=C=S)(C5)C3)C4)cc(O)c2[C@@H]2C[C@H](O)CC[C@H]21", "subject-of-test": "UniProtKB P20272", "Activity": "63%"}
{"molecule": "CC1(C)Oc2cc([C@]34CC5CC(C[C@@](N=[N+]=[N-])(C5)C3)C4)cc(O)c2[C@@H]2C[C@H](O)CC[C@H]21", "subject-of-test": "UniProtKB P20272", "Activity": "61%"}
{"molecule": "CC1(C)Oc2cc([C@]34CC5CC(C[C@@](N=C=S)(C5)C3)C4)cc(O)c2[C@@H]2C[C@H](O)CC[C@H]21", "subject-of-test": "UniProtKB P20272", "Activity": "54%"}
{"molecule": "CC1(C)Oc2cc([C@]34CC5CC(C[C@@](CN=[N+]=[N-])(C5)C3)C4)cc(O)c2[C@@H]2C[C@H](O)CC[C@H]21", "subject-of-test": "UniProtKB P20272", "Activity": "67%"}

---

target: Cannabinoid receptor 1 (Rattus norvegicus) (UniProt P20272); experiment: Agonist activity at rat CB1 receptor expressed in HEK293 cells assessed as inhibition of forskolin-induced cAMP accumulation incubated for 60 mins relative to 500 nM CP-55,940; type: functional, cell-based
Sequence (P20272 whole entry): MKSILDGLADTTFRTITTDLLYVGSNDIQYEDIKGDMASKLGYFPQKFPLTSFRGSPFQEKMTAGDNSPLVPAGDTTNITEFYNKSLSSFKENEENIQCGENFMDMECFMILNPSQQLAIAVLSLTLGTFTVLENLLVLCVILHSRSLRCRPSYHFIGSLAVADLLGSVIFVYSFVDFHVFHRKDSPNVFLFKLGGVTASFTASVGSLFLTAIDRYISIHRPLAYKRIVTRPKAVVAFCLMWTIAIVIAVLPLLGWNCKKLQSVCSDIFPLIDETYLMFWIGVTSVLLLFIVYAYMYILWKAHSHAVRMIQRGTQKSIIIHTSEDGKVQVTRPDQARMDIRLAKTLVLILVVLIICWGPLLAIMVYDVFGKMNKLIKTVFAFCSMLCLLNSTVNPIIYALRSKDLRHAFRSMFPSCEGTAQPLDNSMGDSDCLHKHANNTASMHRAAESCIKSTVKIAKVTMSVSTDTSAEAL
Checkbox rule: Emax lower than 70% = 1.0; Emax not lower than 70% = 0.0.

{"molecule": "CC1(C)Oc2cc([C@]34CC5CC(C[C@@](N=[N+]=[N-])(C5)C3)C4)cc(O)c2[C@@H]2C[C@H](O)CC[C@H]21", "assigned-label": 0.0}
{"molecule": "CC1(C)Oc2cc([C@]34CC5CC(C[C@@](C#N)(C5)C3)C4)cc(O)c2[C@@H]2C[C@H](O)CC[C@H]21", "assigned-label": 0.0}
{"molecule": "CC1(C)Oc2cc([C@]34CC5CC(C[C@@](CN=C=S)(C5)C3)C4)cc(O)c2[C@@H]2C[C@H](O)CC[C@H]21", "assigned-label": 0.0}
{"molecule": "CC1(C)Oc2cc([C@]34CC5CC(C[C@@](CC#N)(C5)C3)C4)cc(O)c2[C@@H]2C[C@H](O)CC[C@H]21", "assigned-label": 0.0}
{"molecule": "CC1(C)Oc2cc([C@]34CC5CC(C[C@@](CN=[N+]=[N-])(C5)C3)C4)cc(O)c2[C@@H]2C[C@H](O)CC[C@H]21", "assigned-label": 1.0}

---

The entries below are paired with their reported Emax.
biological target: Cannabinoid receptor 2 (Homo sapiens, UniProt P34972); experiment: Inverse agonist activity at human CB2 receptor expressed in HEK293 cells assessed as inhibition of forskolin-induced cAMP accumulation incubated for 60 mins relative to 500 nM CP-55,940; assay type: functional, cell-based
Sequence (P34972 whole entry): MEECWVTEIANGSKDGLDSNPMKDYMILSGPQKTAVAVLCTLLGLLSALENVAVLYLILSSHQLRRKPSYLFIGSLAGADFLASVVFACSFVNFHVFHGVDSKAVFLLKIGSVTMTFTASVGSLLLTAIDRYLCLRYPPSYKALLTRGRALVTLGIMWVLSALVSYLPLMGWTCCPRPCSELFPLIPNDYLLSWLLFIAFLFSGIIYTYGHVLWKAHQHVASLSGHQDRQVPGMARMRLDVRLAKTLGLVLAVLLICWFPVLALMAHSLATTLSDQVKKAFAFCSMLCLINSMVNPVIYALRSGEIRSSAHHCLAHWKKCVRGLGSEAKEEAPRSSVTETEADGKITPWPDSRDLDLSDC

{"molecule": "CC1(C)Oc2cc([C@]34CC5CC(C[C@@](C#N)(C5)C3)C4)cc(O)c2[C@@H]2C[C@H](O)CC[C@H]21", "Emax [%]": -93}
{"molecule": "CC1(C)Oc2cc([C@]34CC5CC(C[C@@](CN=C=S)(C5)C3)C4)cc(O)c2[C@@H]2C[C@H](O)CC[C@H]21", "Emax [%]": -91}
{"molecule": "COC(=O)N[C@]12CC3CC(C1)C[C@](c1cc(O)c4c(c1)OC(C)(C)[C@@H]1CC[C@@H](O)C[C@@H]41)(C3)C2", "Emax [%]": -74}
{"molecule": "CC1(C)Oc2cc([C@]34CC5CC(C[C@@](CC#N)(C5)C3)C4)cc(O)c2[C@@H]2C[C@H](O)CC[C@H]21", "Emax [%]": -78}

Source listed as ChEMBL document CHEMBL3414564.
